Origin of measurements: PubChem BioAssay AID2060895

tested on: PDC 899932-113-R3-J6 complex spheroid viability; test: Anticancer human tumor 899932-113-R3-J6-PDC patient-derived melanoma cell line growth inhibition [RAS]; details: second compound 1 µM; first compound 0.0316 µM; active compounds read low;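 note: spheroids exposed to agents for seven days before readout; 100% = DMSO vehicle control wells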
The entries below come with measured viability, T/C values attached.
All answers are understood in %, so give the number only.

CC(C)n1nc(-c2ccc3oc(N)nc3c2)c2c(N)ncnc21 + C=CC(=O)N1CCN(c2nc(OCC3CCCN3C)nc3c(F)c(-c4nc(N)cc(C)c4C(F)(F)F)c(Cl)cc23)C(C)C1 = 78.9
Nc1ccn(C2OC(CO)C(O)C2(F)F)c(=O)n1 (stereo not drawn) + C=CC(=O)N1CCN(c2nc(OCC3CCCN3C)nc3c(F)c(-c4nc(N)cc(C)c4C(F)(F)F)c(Cl)cc23)C(C)C1 = 35.5

Next:
Ask | Recorded viability, T/C for CCN1CCN(Cc2ccc(Nc3ncc(F)c(-c4cc(F)c5nc(C)n(C(C)C)c5c4)n3)nc2)CC1 + C=CC(=O)N1CCN(c2nc(OCC3CCCN3C)nc3c(F)c(-c4nc(N)cc(C)c4C(F)(F)F)c(Cl)cc23)C(C)C1 , please?
Reply | 93
